target: full-length beta-Catenin (Uniprot ID P35222) (Homo sapiens (Human)) (UniProt P35222); assay: FP competition; full-length beta-catenin, competitor 5FAM-TCF4(10-53)
Sequence (P35222 whole entry): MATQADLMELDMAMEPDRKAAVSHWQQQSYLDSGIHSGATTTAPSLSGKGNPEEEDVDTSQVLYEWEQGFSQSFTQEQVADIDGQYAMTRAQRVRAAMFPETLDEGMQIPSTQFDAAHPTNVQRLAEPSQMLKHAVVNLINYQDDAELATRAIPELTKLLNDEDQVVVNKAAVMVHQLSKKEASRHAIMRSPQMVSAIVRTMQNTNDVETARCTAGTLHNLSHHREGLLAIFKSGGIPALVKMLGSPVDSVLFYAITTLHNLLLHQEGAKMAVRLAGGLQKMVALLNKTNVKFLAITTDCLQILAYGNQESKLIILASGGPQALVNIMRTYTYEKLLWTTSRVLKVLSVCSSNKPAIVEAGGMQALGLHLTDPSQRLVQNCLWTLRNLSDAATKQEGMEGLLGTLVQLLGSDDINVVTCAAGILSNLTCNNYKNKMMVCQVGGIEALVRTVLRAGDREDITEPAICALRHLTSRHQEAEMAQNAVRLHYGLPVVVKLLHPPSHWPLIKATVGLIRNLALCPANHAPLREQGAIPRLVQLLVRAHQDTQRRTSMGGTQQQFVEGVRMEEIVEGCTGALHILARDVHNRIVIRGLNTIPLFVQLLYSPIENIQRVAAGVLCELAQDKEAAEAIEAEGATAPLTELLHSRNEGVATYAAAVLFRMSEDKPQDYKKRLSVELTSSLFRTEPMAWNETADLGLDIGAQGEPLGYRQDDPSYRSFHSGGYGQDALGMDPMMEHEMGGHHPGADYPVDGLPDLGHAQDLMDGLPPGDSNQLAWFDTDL
Starred links: 1 amine or outer side, 2 acyl side, 3 side chain; linkers in the order of their positions; H or OH if unused. Positions of bridges follow the written chain, without caps; N, C: chain ends. Non-standard residues stand in square brackets, D forms with d. Primed or numbered codes have the meaning given here. No end group written: not given here. *: point of attachment. PyrS2″ = (S)-3-amino-1-((pent-4-en-1-yloxy)carbonyl)pyrrolidine-3-carboxylic acid (stapling residue), C=CCCCOC(=O)N1CC[C@@](N[*:1])(C(=O)[*:2])C1; B5(4) = 2,2-bis(4-pentenyl)glycine = 2-amino-2-(pent-4-en-1-yl)hept-6-enoic acid (stitching residue), C=CCCCC(CCCC=C)(N[*:1])C(=O)[*:2]; PyrS2 = (S)-3-amino-1-((pent-4-en-1-yloxy)carbonyl)pyrrolidine-3-carboxylic acid, C=CCCCOC(=O)N1CC[C@@](N[*:1])(C(=O)[*:2])C1; B5(19) = 2-amino-2-(pent-4-en-1-yl)hept-6-enoic acid (bis(4-pentenyl)glycine), C=CCCCC(CCCC=C)(N[*:1])C(=O)[*:2]; NdiMeButC = N-terminal 4-(dimethylamino)butanoyl, CN(C)CCCC(=O)*; Phe(3-CF3) = N[C@@H](Cc1cccc(C(F)(F)F)c1)C(=O)O; Phe(4-CF3) = N[C@@H](Cc1ccc(C(F)(F)F)cc1)C(=O)O; Phe(2-CF3) = N[C@@H](Cc1ccccc1C(F)(F)F)C(=O)O; Phe(2-Cl) = N[C@@H](Cc1ccccc1Cl)C(=O)O; Bta = N[C@@H](Cc1csc2ccccc12)C(=O)O; αAllylPro = C=CC[C@@]1(C(=O)O)CCCN1; hPhe = N[C@@H](CCc1ccccc1)C(=O)O; tBuAla = CC(C)(C)C[C@H](N)C(=O)O; 2Thi = N[C@@H](Cc1cccs1)C(=O)O; 3Thi = N[C@@H](Cc1ccsc1)C(=O)O; S8 = C=CCCCCCC[C@](C)(N)C(=O)O; hSer = N[C@@H](CCO)C(=O)O; Octanoyl = CCCCCCCC(=O)*
Value type: log10 of EC50 (log10 of the value in nM)

1. [αAllylPro]D[tBuAla][B5(4)]DDAAFF[PyrS2″][2Thi][Bta]Q-NH2 (staple 1-4, 4-11) [I-1345] | 1.18
2. NdiMeButC-[αAllylPro]D[tBuAla][B5(4)]DDAAFS[PyrS2″]F[Bta]S-NH2 (staple 1-4, 4-11) [I-1354] | 1.68
3. Ac-[αAllylPro]D[tBuAla][B5(4)]DDAAF[Phe(2-CF3)][PyrS2][3Thi][Bta]Q-NH2 (staple 1-4, 4-11) [I-1363] | 0.95
4. Ac-[αAllylPro]D[tBuAla][B5(19)]DDAAF[hSer][S8][Phe(2-CF3)][Bta]Q-NH2 (staple 1-4, 4-11) [I-1397] | 1.68
5. [αAllylPro]D[tBuAla][B5(4)]DDAAFS[PyrS2″]F[Bta]S-NH2 (staple 1-4, 4-11) [I-1356] | 1.36
6. Ac-[αAllylPro]D[tBuAla][B5(19)]DDAAF[hSer][S8][Phe(2-Cl)][Bta]Q-NH2 (staple 1-4, 4-11) [I-1395] | 1.52
7. [αAllylPro]D[tBuAla][B5(4)]DDAAFF[PyrS2″][hPhe][Bta]Q-NH2 (staple 1-4, 4-11) [I-1351] | 2.41
8. [αAllylPro]D[tBuAla][B5(4)]DDAAFS[PyrS2″]F[Bta]S-NH2 (staple 1-4, 4-11) [I-1357] | 1.00
9. Octanoyl-[αAllylPro]D[tBuAla][B5(4)]DDAAFS[PyrS2″]F[Bta]S-NH2 (staple 1-4, 4-11) [I-1355] | 2.33
10. Ac-[αAllylPro]D[tBuAla][B5(4)]DDAAF[Phe(3-CF3)][PyrS2][3Thi][Bta]Q-NH2 (staple 1-4, 4-11) [I-1364] | 0.95
11. Ac-[αAllylPro]D[tBuAla][B5(4)]DDAAF[hSer][S8]F[Bta]Q-NH2 (staple 1-4, 4-11) [I-1388] | 1.26
12. Ac-[αAllylPro]D[tBuAla][B5(4)]DDAAF[Phe(4-CF3)][PyrS2][3Thi][Bta]Q-NH2 (staple 1-4, 4-11) [I-1365] | 0.95
